- Test system: HepG2
- assay_name: Cytotoxicity against human HepG2 cells assessed as cell survival after 48 hrs by MTT assay
- Format: functional, cell-based
- condition_summary: HepG2, 48 h
quantity_measured: IC50
The answer should read as a number with its unit following.

// solved cases for IC50 follow
>  <chemical_string>
C[C@H]1[C@H](C)CC[C@]2(C(=O)NCCCN(C)C)CC[C@]3(C)C(=CC[C@@H]4[C@@]5(C)Cc6c([nH]c7ccc(Br)cc67)C(C)(C)[C@@H]5CC[C@]43C)[C@H]12

>  <study_target>
HepG2

>  <IC50>
5.65 µM

$$$$
>  <chemical_string>
C[C@H]1[C@H](C)CC[C@]2(C(=O)O)CC[C@]3(C)C(=CC[C@@H]4[C@@]5(C)Cc6c([nH]c7ccc(Br)cc67)C(C)(C)[C@@H]5CC[C@]43C)[C@H]12

>  <study_target>
HepG2

>  <IC50>
38.4 µM

$$$$
>  <chemical_string>
COc1ccc2[nH]c3c(c2c1)C[C@]1(C)[C@H]2CC=C4[C@@H]5[C@@H](C)[C@H](C)CC[C@]5(C(=O)NCCCN(C)C)CC[C@@]4(C)[C@]2(C)CC[C@H]1C3(C)C

>  <study_target>
HepG2

>  <IC50>
11.4 µM

$$$$
>  <chemical_string>
C[C@H]1[C@H](C)CC[C@]2(C(=O)O)CC[C@]3(C)C(=CC[C@@H]4[C@@]5(C)Cc6c([nH]c7ccc(Cl)cc67)C(C)(C)[C@@H]5CC[C@]43C)[C@H]12

>  <study_target>
HepG2

>  <IC50>
30.9 µM

$$$$

Now consider the entry below.
Notebook entry, HepG2 assay: IC50 of Cc1ccc2[nH]c3c(c2c1)C[C@]1(C)[C@H]2CC=C4[C@@H]5[C@@H](C)[C@H](C)CC[C@]5(C(=O)NCCCN(C)C)CC[C@@]4(C)[C@]2(C)CC[C@H]1C3(C)C = ?
1.26 µM

###

- System: Candida tropicalis
- assay_name: Antimicrobial activity against Candida tropicalis CGMCC2.3967 after 48 hrs by modified microdilution method
- Type: functional
- condition_summary: CGMCC2.3967, 48 h
quantity_measured: MIC

>  <chemical_string>
COC(=O)[C@]12CC[C@@H](C)[C@H](C)[C@H]1C1=CC[C@@H]3[C@@]4(C)Cc5c([nH]c6ccc(Br)cc56)C(C)(C)[C@@H]4CC[C@@]3(C)[C@]1(C)CC2

>  <result>
> 100 µg/mL

$$$$
>  <chemical_string>
C[C@H]1[C@H](C)CC[C@]2(C(=O)O)CC[C@]3(C)C(=CC[C@@H]4[C@@]5(C)Cc6c([nH]c7ccccc67)C(C)(C)[C@@H]5CC[C@]43C)[C@H]12

>  <result>
> 100 µg/mL

$$$$
>  <chemical_string>
C[C@H]1[C@H](C)CC[C@]2(C(=O)NCCCN(C)C)CC[C@]3(C)C(=CC[C@@H]4[C@@]5(C)Cc6c([nH]c7ccccc67)C(C)(C)[C@@H]5CC[C@]43C)[C@H]12

>  <result>
62.5 µg/mL

$$$$

Can you share its MIC? I mean this compound: CCOc1ccc2[nH]c3c(c2c1)C[C@]1(C)[C@H]2CC=C4[C@@H]5[C@@H](C)[C@H](C)CC[C@]5(C(=O)NCCCN(C)C)CC[C@@]4(C)[C@]2(C)CC[C@H]1C3(C)C
> 100 µg/mL

Can you share its MIC? I mean this compound: C[C@H]1[C@H](C)CC[C@]2(C(=O)O)CC[C@]3(C)C(=CC[C@@H]4[C@@]5(C)Cc6c([nH]c7ccc(Cl)cc67)C(C)(C)[C@@H]5CC[C@]43C)[C@H]12
> 100 µg/mL

###

Listed compounds paired with reported pIC50
- assay_name: Cytotoxicity against human […] cells assessed as cell survival after 48 hrs by MTT assay
- Type: functional, cell-based
Here pIC50 is given on a logarithmic scale as minus log10 of the concentration in mol/L.

>  <chemical_string>
CCOc1ccc2[nH]c3c(c2c1)C[C@]1(C)[C@H]2CC=C4[C@@H]5[C@@H](C)[C@H](C)CC[C@]5(C(=O)O)CC[C@@]4(C)[C@]2(C)CC[C@H]1C3(C)C

>  <pIC50>
4.61

$$$$

Can you share its pIC50? I mean this compound: COc1ccc2[nH]c3c(c2c1)C[C@]1(C)[C@H]2CC=C4[C@@H]5[C@@H](C)[C@H](C)CC[C@]5(C(=O)NCCCN(C)C)CC[C@@]4(C)[C@]2(C)CC[C@H]1C3(C)C
4.89

Can you share its pIC50? I mean this compound: C[C@H]1[C@H](C)CC[C@]2(C(=O)O)CC[C@]3(C)C(=CC[C@@H]4[C@@]5(C)Cc6c([nH]c7ccc(Br)cc67)C(C)(C)[C@@H]5CC[C@]43C)[C@H]12
4.20

###

- System: Pseudomonas fluorescens
- assay_name: Antimicrobial activity against Pseudomonas fluorescens CGMCC1.1828 after 24 hrs by modified microdilution method
- Assay type: functional
- condition_summary: CGMCC1.1828, 24 h
quantity_measured: MIC (µg/mL)
Reply with just the number (in µg/mL).

Can you share its MIC? I mean this molecule: C[C@H]1[C@H](C)CC[C@]2(C(=O)O)CC[C@]3(C)C(=CC[C@@H]4[C@@]5(C)Cc6c([nH]c7ccc(Br)cc67)C(C)(C)[C@@H]5CC[C@]43C)[C@H]12
62.5

Can you share its MIC? I mean this molecule: C[C@H]1[C@H](C)CC[C@]2(C(=O)NCCCN(C)C)CC[C@]3(C)C(=CC[C@@H]4[C@@]5(C)Cc6c([nH]c7ccccc67)C(C)(C)[C@@H]5CC[C@]43C)[C@H]12
31.2

Can you share its MIC? I mean this molecule: C[C@H]1[C@H](C)CC[C@]2(C(=O)NCCCN(C)C)CC[C@]3(C)C(=CC[C@@H]4[C@@]5(C)Cc6c([nH]c7ccc(F)cc67)C(C)(C)[C@@H]5CC[C@]43C)[C@H]12
7.8

Can you share its MIC? I mean this molecule: Cc1ccc2[nH]c3c(c2c1)C[C@]1(C)[C@H]2CC=C4[C@@H]5[C@@H](C)[C@H](C)CC[C@]5(C(=O)NCCCN(C)C)CC[C@@]4(C)[C@]2(C)CC[C@H]1C3(C)C
31.2

###

Listed compounds paired with reported pIC50
- Test system: HepG2
- assay_name: Cytotoxicity against human HepG2 cells assessed as cell survival after 48 hrs by MTT assay
- Format: functional, cell-based
- condition_summary: HepG2, 48 h
Here pIC50 is given on a logarithmic scale as minus log10 of the concentration in mol/L.

Can you share its pIC50? I mean this compound: COc1ccc2[nH]c3c(c2c1)C[C@]1(C)[C@H]2CC=C4[C@@H]5[C@@H](C)[C@H](C)CC[C@]5(C(=O)O)CC[C@@]4(C)[C@]2(C)CC[C@H]1C3(C)C
4.46

Can you share its pIC50? I mean this compound: Cc1ccc2[nH]c3c(c2c1)C[C@]1(C)[C@H]2CC=C4[C@@H]5[C@@H](C)[C@H](C)CC[C@]5(C(=O)O)CC[C@@]4(C)[C@]2(C)CC[C@H]1C3(C)C
4.77

###

Listed molecules paired with reported MIC
- Test system: Pseudomonas fluorescens
- assay_name: Antimicrobial activity against Pseudomonas fluorescens CGMCC1.1828 after 24 hrs by modified microdilution method
- Format: functional
- condition_summary: CGMCC1.1828, 24 h
Reply with just the number (in µg/mL).

Notebook entry, Pseudomonas fluorescens assay: MIC of COc1ccc2[nH]c3c(c2c1)C[C@]1(C)[C@H]2CC=C4[C@@H]5[C@@H](C)[C@H](C)CC[C@]5(C(=O)O)CC[C@@]4(C)[C@]2(C)CC[C@H]1C3(C)C = ?
62.5

Notebook entry, Pseudomonas fluorescens assay: MIC of C[C@H]1[C@H](C)CC[C@]2(C(=O)O)CC[C@]3(C)C(=CC[C@@H]4[C@@]5(C)Cc6c([nH]c7ccc(F)cc67)C(C)(C)[C@@H]5CC[C@]43C)[C@H]12 = ?
31.2

Notebook entry, Pseudomonas fluorescens assay: MIC of COC(=O)[C@]12CC[C@@H](C)[C@H](C)[C@H]1C1=CC[C@@H]3[C@@]4(C)Cc5c([nH]c6ccc(C)cc56)C(C)(C)[C@@H]4CC[C@@]3(C)[C@]1(C)CC2 = ?
62.5

Notebook entry, Pseudomonas fluorescens assay: MIC of COC(=O)[C@]12CC[C@@H](C)[C@H](C)[C@H]1C1=CC[C@@H]3[C@@]4(C)Cc5c([nH]c6ccc(Br)cc56)C(C)(C)[C@@H]4CC[C@@]3(C)[C@]1(C)CC2 = ?
62.5

Notebook entry, Pseudomonas fluorescens assay: MIC of C[C@H]1[C@H](C)CC[C@]2(C(=O)O)CC[C@]3(C)C(=CC[C@@H]4[C@@]5(C)Cc6c([nH]c7ccccc67)C(C)(C)[C@@H]5CC[C@]43C)[C@H]12 = ?
15.6

These entries and their values trace back to ChEMBL document CHEMBL3351749.
